Attribute: remaining activity (%)
- systemTested: MMP-2 (Homo sapiens)
- Construct: purchased Sino Biological 10082-HNAH
- Sequence (P08253 110-660): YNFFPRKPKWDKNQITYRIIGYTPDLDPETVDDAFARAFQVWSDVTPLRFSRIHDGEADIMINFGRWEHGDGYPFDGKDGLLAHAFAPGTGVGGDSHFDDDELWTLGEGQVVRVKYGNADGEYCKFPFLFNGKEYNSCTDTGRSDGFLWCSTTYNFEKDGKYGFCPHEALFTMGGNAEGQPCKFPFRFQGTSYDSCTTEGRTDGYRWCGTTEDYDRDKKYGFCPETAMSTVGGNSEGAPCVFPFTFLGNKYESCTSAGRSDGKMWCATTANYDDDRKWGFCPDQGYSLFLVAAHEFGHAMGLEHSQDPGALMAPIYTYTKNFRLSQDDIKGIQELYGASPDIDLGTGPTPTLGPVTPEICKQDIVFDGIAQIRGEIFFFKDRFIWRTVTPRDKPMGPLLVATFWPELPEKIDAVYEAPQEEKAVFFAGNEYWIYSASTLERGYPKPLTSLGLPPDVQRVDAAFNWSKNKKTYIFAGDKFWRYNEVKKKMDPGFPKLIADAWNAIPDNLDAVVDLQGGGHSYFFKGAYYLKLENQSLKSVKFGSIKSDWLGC
- measurementDescription: MMP-2 inhibition assay (fluorogenic peptide substrate)
- Assay type: biochemical
- testParameters: MMP-2; concentration 48.76 µM
API doc: respond with a numeric literal and nothing else, no unit.

Example entries begin here.
compound | remaining activity (%)
O=C(Cn1cnc2c(oc3ccccc32)c1=O)NCc1c[nH]nn1 [182+787 Linker 1] | 61.94
Cc1cc(=O)[nH]c(-n2nc(C)c(CCC(=O)NCCOCCOCCNC(=O)CCC(=O)NCc3c[nH]nn3)c2C)n1 [693+787 Linker 10] | 75.04
Cc1cc(=O)[nH]c(-n2nc(C)c(CCC(=O)NCCSCC(=O)NCc3c[nH]nn3)c2C)n1 [693+787 Linker 24] | 69.73

Identify measured remaining activity (%) corresponding to O=C(CNC(=O)NC12CC3CC(CC(C3)C1)C2)NCCCCCCCCNC(=O)c1cncc(O)c1 [66+828 Linker 4]
69.88

Identify measured remaining activity (%) corresponding to O=C(CCCCCCC(=O)NCC12CC3CC(CC(C3)C1)C2)NCc1c[nH]nn1 [66+787 Linker 4]
60.10

Identify measured remaining activity (%) corresponding to Cc1cc(=O)[nH]c(-n2nc(C)c(CCC(=O)NCc3c[nH]nn3)c2C)n1 [693+787 Linker 1]
75.55

Identify measured remaining activity (%) corresponding to O=C(CCC(=O)NCc1c[nH]nn1)NCCCCCCCCNC(=O)Cn1cnc2c(oc3ccccc32)c1=O [182+787 Linker 4]
75.41

Identify measured remaining activity (%) corresponding to O=C(C=CCCCCNC(=O)c1cncc(O)c1)CC(=O)NCC12CC3CC(CC(C3)C1)C2 [66+828 Linker 12]
86.38

----------
- systemTested: MMP-2 (Homo sapiens, UniProt P08253)
- Construct: purchased Sino Biological 10082-HNAH
- measurementDescription: MMP-2 inhibition assay (fluorogenic peptide substrate)
- Assay type: biochemical
- testParameters: mean ± SE; n.d: not detected; Fig. 5d unit inferred, µM; read-out: IC50
measuredParameter: IC50 (µM)
Report the value in µM with no unit label.

Example entries begin here.
compound | unitDescriptor | IC50
O=C(CCC(=O)NCc1c[nH]nn1)NCCCCCCCCNC(=O)Cn1cnc2c(oc3ccccc32)c1=O [182+787 Linker 4] | µM | 193
O=C(Cn1cnc2c(oc3ccccc32)c1=O)NCCNC(=O)c1cncc(O)c1 [182+828 Linker 1] | µM | 77.1
O=C(CCC(=O)NCc1c[nH]nn1)NCCOCCOCCNC(=O)CNC(=O)NC12CC3CC(CC(C3)C1)C2 [66+787 Linker 10] | µM | 578

Identify measured IC50 corresponding to Cc1cc(=O)[nH]c(-n2nc(C)c(CCC(=O)NCCCCCCCCNC(=O)c3cncc(O)c3)c2C)n1 [693+828 Linker 4]
212

Identify measured IC50 corresponding to Cn1c(O)nc2cc(C(=O)NCCCCCCCCNC(=O)Cn3cnc4c(oc5ccccc54)c3=O)cnc21 [182+826 Linker 4]
439

Identify measured IC50 corresponding to Cc1cc(=O)[nH]c(-n2nc(C)c(CCC(=O)NCCOCCOCCNC(=O)CCC(=O)NCc3c[nH]nn3)c2C)n1 [693+787 Linker 10]
171

Identify measured IC50 corresponding to O=C(Cn1cnc2c(oc3ccccc32)c1=O)NCc1c[nH]nn1 [182+787 Linker 1]
95.5

Identify measured IC50 corresponding to O=C(O)c1cncc(O)c1 [Compound 828]
385

Identify measured IC50 corresponding to Cc1cc(=O)[nH]c(-n2nc(C)c(CCC(=O)NCCCCCCCCNC(=O)CCC(=O)NCc3c[nH]nn3)c2C)n1 [693+787 Linker 4]
169
